- studyTarget: HLA-A*0206 (human)
- protocolNotes: inhibition of 125I probe peptide binding to purified HLA
- assaySetup: remark: other sources report otherwise
endpointLabel: relative binding ratio

The cases that follow already have their relative binding ratio on record.
binder: DLPTQEPALGT [PSA position 136, 11 amino acids]
relative binding ratio: 0.0001

binder: CARAYSEKVT [Kallikrein position 184, 10 amino acids]
relative binding ratio: 0.003

P: CAGRWTGGKST [PSA position 194, 11 amino acids]
Q: CALPERPSLYT [PSA position 230, 11 amino acids]
Pick one, P or Q : lowest reported relative binding ratio. Record your answer as the label of the chosen record.
P
